Experiment: Cmax in C57BL/6 mouse at 10 mg/kg, po
Format: ADME, organism-based
Design: dose 10 mg/kg, route oral
Conditions: in vivo

{"STRUCTURE_STRING": "O=C(NCCS(=O)(=O)c1ccc(C(F)(F)F)cn1)c1ccc(Cl)cc1", "Cmax / ng/mL": 881}

----------
Experiment: Clearance in C57BL/6 mouse at 0.5 mg/kg, iv
Type: ADME, organism-based
Parameters: dose 0.5 mg/kg, route intravenous
Settings: in vivo

{"STRUCTURE_STRING": "O=C(NCCS(=O)(=O)c1ccc(C(F)(F)F)cn1)c1ccc(Cl)cc1", "clearance (mL/min/kg)": 39}
